- target: human CD71 on cells (SKBR3; SW620-rLuc-KRAS) (human, UniProt P02786 1-760)
- Sequence (P02786 whole entry): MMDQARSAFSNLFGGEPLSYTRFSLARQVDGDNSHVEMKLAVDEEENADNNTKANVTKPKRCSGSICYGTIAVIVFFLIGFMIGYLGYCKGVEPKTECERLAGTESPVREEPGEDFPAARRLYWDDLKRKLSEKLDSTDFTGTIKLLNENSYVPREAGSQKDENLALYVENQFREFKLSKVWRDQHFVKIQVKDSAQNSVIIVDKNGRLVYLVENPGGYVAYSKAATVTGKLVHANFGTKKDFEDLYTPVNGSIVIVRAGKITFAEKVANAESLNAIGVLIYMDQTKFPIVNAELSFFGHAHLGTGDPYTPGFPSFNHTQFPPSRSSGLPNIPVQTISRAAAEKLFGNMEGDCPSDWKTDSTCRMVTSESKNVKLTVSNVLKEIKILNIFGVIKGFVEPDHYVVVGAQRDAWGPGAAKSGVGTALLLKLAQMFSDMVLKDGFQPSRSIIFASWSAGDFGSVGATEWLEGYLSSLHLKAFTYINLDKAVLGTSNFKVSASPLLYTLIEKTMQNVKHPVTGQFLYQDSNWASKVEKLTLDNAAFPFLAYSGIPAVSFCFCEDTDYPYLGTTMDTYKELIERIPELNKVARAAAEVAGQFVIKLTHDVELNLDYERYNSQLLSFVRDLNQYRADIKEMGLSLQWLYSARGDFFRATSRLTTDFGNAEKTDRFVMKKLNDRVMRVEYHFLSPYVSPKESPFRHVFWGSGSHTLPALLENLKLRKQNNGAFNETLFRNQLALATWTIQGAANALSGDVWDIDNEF
- procedure-text: cell-based or functional assay
// reported CTG EC50 (CellTiter-Glo luminescent assay, SKBR3 cells, 72 h) per item
observation-type: CTG EC50 (CellTiter-Glo luminescent assay, SKBR3 cells, 72 h)

CD71-binding FN3 domain of SEQ ID NO: 400 (designed binder, Tencon-based FN3 domain) MLPAPKNLVVSRVTEDSARLSWTAPDAAFDSFFIGYLEPQPPGEAIHLFVPGSERSYDLTGLKPGTEYNVTIQGVKGGFPSGPLHATFTT    2.9 nM
CD71-binding FN3 domain of SEQ ID NO: 478 (designed binder, Tencon-based FN3 domain) MLPAPKNLVVSRVTEDSARLSWTAPDAAFDSFFIGYLEPQPPGEAIHLYVPGSERSYDLTGLKPGTEYNVTIQGVKGGFPSVPLIAKFTT    0.6 nM
CD71-binding FN3 domain of SEQ ID NO: 496 (designed binder, Tencon-based FN3 domain) MLPAPKNLVVSRVTEDSARLSWTAPDAAFDSFFIGYLEPQPPGEAIILWVPGSERSYDLTGLKPGTEYNVTIQGVKGGFPSVPLIAQFTT    3 nM
CD71-binding FN3 domain of SEQ ID NO: 472 (designed binder, Tencon-based FN3 domain) MLPAPKNLVVSRVTEDSARLSWTAPDAAFDSFFIGYLEPQPPGEAIELYVPGSERSYDLTGLKPGTEYNVTIQGVKGGFPSLPLVATFTT    0.3 nM
CD71-binding FN3 domain of SEQ ID NO: 373 (designed binder, Tencon-based FN3 domain) MLPAPKNLVVSRVTEDSARLSWTAPDAAFDSFFIGYLEPQPPGEAISLFVPGSERSYDLTGLKPGTEYNVTIQGVKGGFPSDPLVASFTT    0.4 nM
CD71-binding FN3 domain of SEQ ID NO: 447 (designed binder, Tencon-based FN3 domain) MLPAPKNLVVSRVTEDSARLSWTAPDAAFDSFFIGYLEPQPPGEAIYLYVPGSERSYDLTGLKPGTEYNVTIQGVKGGFPSYPLTAQFTT    71.5 nM
CD71-binding FN3 domain of SEQ ID NO: 516 (designed binder, Tencon-based FN3 domain) MLPAPKNLVVSRVTEDSARLSWTAPDAAFDSFFIGYLEPQPPGEAISLWVPGSERSYDLTGLKPGTEYNVTIQGVKGGFPSSPLVAYFTT    8.4 nM
CD71-binding FN3 domain of SEQ ID NO: 508 (designed binder, Tencon-based FN3 domain) MLPAPKNLVVSRVTEDSARLSWTAPDAAFDSFFIGYLEPQPPGEAITLSVPGSERSYDLTGLKPGTEYNVTIQGVKGGFPSEPLIAIFTT    1.5 nM
CD71-binding FN3 domain of SEQ ID NO: 527 (designed binder) MLPAPKNLVVSRVTEDSARLSWTAPDAAFDSFFIGYLEPQPPGEAIHLYVPGSERSYDLTGLKPGTEYNVTIQGVKGGFPSEPLIANFTT    0.1 nM
CD71-binding FN3 domain of SEQ ID NO: 529 (designed binder, Tencon-based FN3 domain) MLPAPKNLVVSRVTEDSARLSWTAPDAAFDSFFIGYLEPQPPGEAIDLYVPGSERSYDLTGLKPGTEYNVTIQGVKGGFPSLPLQAHFTT    7 nM
CD71-binding FN3 domain of SEQ ID NO: 497 (designed binder) MLPAPKNLVVSRVTEDSARLSWTAPDAAFDSFFIGYLEPQPPGEAITLLVPGSERSYDLTGLKPGTEYNVTIQGVKGGFPSKPLYAYFTT    31.3 nM
CD71-binding FN3 domain of SEQ ID NO: 445 (designed binder) MLPAPKNLVVSRVTEDSARLSWTAPDAAFDSFFIGYLEPQPPGEAIHLFVPGSERSYDLTGLKPGTEYNVTIQGVKGGFPSDPLVASFTT    0.4 nM
CD71-binding FN3 domain of SEQ ID NO: 410 (designed binder) MLPAPKNLVVSRVTEDSARLSWTAPDAAFDSFFIGYLEPQPPGEAIALWVPGSERSYDLTGLKPGTEYNVTIQGVKGGFPSQPLHAHFTT    5.8 nM
CD71-binding FN3 domain of SEQ ID NO: 483 (designed binder, Tencon-based FN3 domain) MLPAPKNLVVSRVTEDSARLSWTAPDAAFDSFFIGYLEPQPPGEAITLVVPGSERSYDLTGLKPGTEYNVTIQGVKGGFPSDPLVASFTT    9.8 nM
CD71-binding FN3 domain of SEQ ID NO: 473 (designed binder, Tencon-based FN3 domain) MLPAPKNLVVSRVTEDSARLSWTAPDAAFDSFFIGYLEPQPPGEAIDLWVPGSERSYDLTGLKPGTEYNVTIQGVKGGFPSLPLSASFTT    12.6 nM
CD71-binding FN3 domain of SEQ ID NO: 491 (designed binder) MLPAPKNLVVSRVTEDSARLSWTAPDAAFDSFFIGYLEPQPSGEAIHLIVPGSERSYDLTGLKPGTEYNVTIQGVKGGFPSDPLVASFTT    3.2 nM
CD71-binding FN3 domain of SEQ ID NO: 347 (designed binder) MLPAPKNLVVSRVTEDSARLSWTAPDAAFDSFFIGYLEPQPPGEAIGLFVPGSERSYDLTGLKPGTEYNVTIQGVKGGFPSEPLKAAFTT    53.4 nM
CD71-binding FN3 domain of SEQ ID NO: 540 (designed binder, Tencon-based FN3 domain) MLPAPKNLVVSRVTEDSARLSWTAPDAAFDSFYIAYAEPRPDGEAIILVVPGSERSYDLTGLKPGTEYSVLIHGVKGGLLSSPLDAGFTT    14.4 nM
CD71-binding FN3 domain of SEQ ID NO: 465 (designed binder, Tencon-based FN3 domain) MLPAPKNLVVSRVTEDSARLSWTAPDAAFDSFFIGYLEPQPPGEAIDLYVPGSERSYDLTGLKPGTEYNVTIQGVKGGFPSEPLWADFTT    1.2 nM
